Tested on: Mus musculus
Assay: Anti-inflammatory activity in Mus musculus BALB/c (mouse) assessed as carrageenan-induced paw swelling at 50 mg/kg, po administered 1 hr followed by carrageenan challenge measured at 180 min (reference value: 52 +/- 4.6 x 10^-2 mm)
Format: functional

Smiles Data	Test System	Unit Abbreviation	Activity
CCOC(=O)Cc1csc2nc(-c3ccc(OC)cc3)nn12	Mus musculus	×10⁻² mm	65.4
COc1cc(CCC2=NC(=S)N=N2)cc(OC)c1OC	Mus musculus	×10⁻² mm	48.2
COc1ccc(CCC2=NC(=S)N=N2)cc1	Mus musculus	×10⁻² mm	46.8
CCOC(=O)c1sc2nc(-c3ccc(Cl)cc3)nn2c1C	Mus musculus	×10⁻² mm	70
CCOC(=O)Cc1csc2nc(-c3cc(Cl)cc(Cl)c3)nn12	Mus musculus	×10⁻² mm	49
COc1cc(CC2=NC(=S)N=N2)cc(OC)c1OC	Mus musculus	×10⁻² mm	46
CCOC(=O)Cc1csc2nc(-c3ccccc3)nn12	Mus musculus	×10⁻² mm	53.5
CCOC(=O)Cc1csc2nc(Cc3cc(OC)c(OC)c(OC)c3)nn12	Mus musculus	×10⁻² mm	46
CCOC(=O)c1sc2nc(CCc3cc(OC)c(OC)c(OC)c3)nn2c1C	Mus musculus	×10⁻² mm	29
Sc1n[nH]c(-c2ccccc2)n1	Mus musculus	×10⁻² mm	34.9
CCOC(=O)Cc1csc2nc(-c3ccc(Cl)cc3)nn12	Mus musculus	×10⁻² mm	66.1
COc1ccc(-c2nnc(S)[nH]2)cc1	Mus musculus	×10⁻² mm	49.7

====

Tested on: Mus musculus
Assay: Anti-inflammatory activity in Mus musculus BALB/c (mouse) assessed as carrageenan-induced paw swelling at 200 mg/kg, po administered 1 hr followed by carrageenan challenge measured at 360 min (reference value: 105 +/- 4.5 x 10^-2 mm)
Assay type: functional
Lab note: anything with Activity at or over 100 ×10⁻² mm counts as Yes; the rest go in No.

Smiles Data	Test System	Qualitative Label
CCOC(=O)Cc1csc2nc(-c3ccc(Cl)cc3)nn12	Mus musculus	No
CCOC(=O)c1sc2nc(CCc3cc(OC)c(OC)c(OC)c3)nn2c1C	Mus musculus	No
COc1cc(CC2=NC(=S)N=N2)cc(OC)c1OC	Mus musculus	Yes
COc1cc(CCC2=NC(=S)N=N2)cc(OC)c1OC	Mus musculus	Yes
COc1ccc(-c2nnc(S)[nH]2)cc1	Mus musculus	Yes
Sc1n[nH]c(-c2ccccc2)n1	Mus musculus	Yes
CCOC(=O)Cc1csc2nc(Cc3cc(OC)c(OC)c(OC)c3)nn12	Mus musculus	No
CCOC(=O)Cc1csc2nc(-c3ccccc3)nn12	Mus musculus	Yes
CCOC(=O)Cc1csc2nc(-c3ccc(OC)cc3)nn12	Mus musculus	Yes
COc1ccc(CCC2=NC(=S)N=N2)cc1	Mus musculus	No
CCOC(=O)Cc1csc2nc(-c3cc(Cl)cc(Cl)c3)nn12	Mus musculus	No

====

Tested on: Mus musculus
Assay: Anti-inflammatory activity in Mus musculus BALB/c (mouse) assessed as inhibition of carrageenan-induced paw swelling at 50 mg/kg, po administered 1 hr followed by carrageenan challenge measured at 270 min relative to control
Format: functional
Assay Metric: inhibition in vivo at 50 mg/kg

Smiles Data	Observed
CCOC(=O)Cc1csc2nc(Cc3cc(OC)c(OC)c(OC)c3)nn12	21.4%
Sc1n[nH]c(-c2ccccc2)n1	21.4%
COc1ccc(-c2nnc(S)[nH]2)cc1	17.9%
COc1cc(CC2=NC(=S)N=N2)cc(OC)c1OC	25.9%
